SYSTEM TESTED: P. falciparum translation (P. falciparum lysate)
METHOD: P. falciparum in vitro translation (PfIVT) assay, lysate-based, luciferase reporter
Format: biochemical, Plasmodium falciparum
PROTOCOL CONDITIONS: Pandemic Box hits; 8-point; weighted mean ± SD of two technical replicates; read-out: IC50 value (μM) PfIVT
# IC50 per entry
Respond numerically; units are µM and should not be typed.

For orientation, consider the following solved cases.
>  <COMPOUND>
C(=C\c1nc2ccccc2[nH]1)/c1ccc2c(c1)OCO2

>  <SYSTEM TESTED>
P. falciparum translation (P. falciparum lysate)

>  <UNIT NAME>
µM

>  <IC50>
0.6

$$$$
>  <COMPOUND>
O=C(O)c1cc(-c2ccc(Br)cc2)nc2ccc(Cl)cc12

>  <SYSTEM TESTED>
P. falciparum translation (P. falciparum lysate)

>  <UNIT NAME>
µM

>  <IC50>
14

$$$$
>  <COMPOUND>
O=C(Nc1nnc(-c2ccccc2)o1)c1ccc(F)cc1

>  <SYSTEM TESTED>
P. falciparum translation (P. falciparum lysate)

>  <UNIT NAME>
µM

>  <IC50>
3.7

$$$$
>  <COMPOUND>
CC(C)Nc1ncnc2c1cnn2-c1ccc(Cl)cc1

>  <SYSTEM TESTED>
P. falciparum translation (P. falciparum lysate)

>  <UNIT NAME>
µM

>  <IC50>
17

$$$$
>  <COMPOUND>
CC(=O)Oc1ccccc1C(=O)Nc1ncc([N+](=O)[O-])s1 [MMV688991, nitazoxanide, reference compound]

>  <SYSTEM TESTED>
P. falciparum translation (P. falciparum lysate)

>  <UNIT NAME>
µM

>  <IC50>
0.02

$$$$
>  <COMPOUND>
Cc1oncc1C(=O)Nc1ccc(C(F)(F)F)cc1

>  <SYSTEM TESTED>
P. falciparum translation (P. falciparum lysate)

>  <UNIT NAME>
µM

>  <IC50>
2

$$$$
>  <COMPOUND>
CC(Cc1ccccc1)C(=O)Nc1ccc(Cl)cc1C(=O)O (centres unmarked)

>  <SYSTEM TESTED>
P. falciparum translation (P. falciparum lysate)

>  <UNIT NAME>
µM

>  <IC50>
8.1

$$$$
>  <COMPOUND>
Cn1cc(NC(=O)c2cc(NC(=O)c3ccc(/C=C/c4cnc5ccccc5c4)cc3)cn2C)cc1C(=O)NCCN1CCOCC1

>  <SYSTEM TESTED>
P. falciparum translation (P. falciparum lysate)

>  <UNIT NAME>
µM

>  <IC50>
17

$$$$
>  <COMPOUND>
CCOc1ccc(C(=O)NCCc2ccccc2)cc1

>  <SYSTEM TESTED>
P. falciparum translation (P. falciparum lysate)

>  <UNIT NAME>
µM

>  <IC50>
14

$$$$

The reported value for Nc1nc(NC2Cc3ccc(F)cc3C2)nc(N2CCCCC2)n1 (centres unmarked) in terms of IC50 is 0.8

----------
SYSTEM TESTED: CBG99 luciferase (Pyrophorus plagiophthalamus, UniProt Q7M4K1)
Sequence (Q7M4K1 entry or part of it): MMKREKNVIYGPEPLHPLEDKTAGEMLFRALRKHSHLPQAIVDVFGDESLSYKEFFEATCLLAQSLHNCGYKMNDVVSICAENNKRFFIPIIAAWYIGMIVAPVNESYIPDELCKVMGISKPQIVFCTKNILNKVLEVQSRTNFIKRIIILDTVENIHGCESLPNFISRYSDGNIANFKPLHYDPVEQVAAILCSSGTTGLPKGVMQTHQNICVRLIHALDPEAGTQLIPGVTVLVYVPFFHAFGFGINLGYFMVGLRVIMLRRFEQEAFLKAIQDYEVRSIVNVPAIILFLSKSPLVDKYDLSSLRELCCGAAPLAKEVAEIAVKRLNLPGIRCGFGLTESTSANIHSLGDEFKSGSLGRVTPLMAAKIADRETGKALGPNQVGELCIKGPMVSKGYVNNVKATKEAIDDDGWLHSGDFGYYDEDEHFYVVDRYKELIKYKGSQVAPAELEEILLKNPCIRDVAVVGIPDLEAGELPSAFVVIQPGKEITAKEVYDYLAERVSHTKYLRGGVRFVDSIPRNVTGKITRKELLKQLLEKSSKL
METHOD: Luciferase counterscreen (false-positive counterscreen)
Format: biochemical, click beetle
PROTOCOL CONDITIONS: Pathogen Box hits; weighted mean ± SD of two technical replicates; read-out: IC50 value (μM) Counterscreen
Procedure: Hits identified in our primary assay screen were assessed for their potential to interfere with the cbg99 luciferase reporter. […] Hits from the primary screen were assessed as luciferase inhibitors in 8-point dose-dependent assays ranging from 30 μM to 13.7 nM (1:3 dilutions). Levels of luciferase inhibition were determined relative to the positive control.
Measured IC50 of individual entries

# count of solved cases: 2
>  <MOLECULE>
COc1cc(C2=NCCN2)ccc1-c1cn(-c2cccc(C3=NCCN3)c2)nn1

>  <MEASUREMENT>
> 30 µM

$$$$
>  <MOLECULE>
O=C(Nc1nc(-c2ccccn2)cs1)c1cncn1-c1ccccc1

>  <MEASUREMENT>
> 30 µM

$$$$

Sure, the documented IC50 for "COc1cc(C2=NCCN2)ccc1-n1cc(-c2cccc(C3=NCCN3)c2)nn1" is > 30 µM

# IC50 (compound: "NC(=O)c1cc(Br)ccc1OCCOc1ccccc1" ) is 0.9 µM

Lab note: "COc1ccc(C2=NCCN2)cc1-c1cn(-c2cccc(C3=NCCN3)c2)nn1" gave IC50 of > 30 µM

----------
Test system: asexual-blood-stage (ABS) P. falciparum
METHOD: SYBR green-based P. falciparum asexual growth inhibition assay
Type: cell-based
PROTOCOL CONDITIONS: Plasmodium falciparum; read-out: EC50 against P. falciparum (text)
RECORDED METRIC: pEC50
Lab note — pEC50 values are minus log10 of concentrations in M.

// recorded pEC50 for "O=C(Nc1ccc(F)c(-c2nc3cc(-c4ccccc4)cnc3[nH]2)c1)N1CCCC1" : 4.85

----------
SYSTEM TESTED: CBG99 luciferase (Pyrophorus plagiophthalamus)
METHOD: Luciferase counterscreen (false-positive counterscreen)
Type: biochemical, click beetle
PROTOCOL CONDITIONS: read-out: IC50 value (μM) Counterscreen; Pathogen Box hits; weighted mean ± SD of two technical replicates
RECORDED METRIC: IC50 (µM)
Report only the number, with the unit µM understood.

Answered cases to consult:
>  <COMPOUND>
O=C(Nc1c(O)cccc1-c1nc2c(C(=O)O)cccc2o1)c1cc(-c2ccccc2)on1 [MMV676008]

>  <SYSTEM TESTED>
CBG99 luciferase (Pyrophorus plagiophthalamus)

>  <UNIT NAME>
µM

>  <MEASUREMENT>
21

$$$$
>  <COMPOUND>
CC(=O)Oc1ccccc1C(=O)Nc1ncc([N+](=O)[O-])s1 [MMV688991, nitazoxanide, reference compound]

>  <SYSTEM TESTED>
CBG99 luciferase (Pyrophorus plagiophthalamus)

>  <UNIT NAME>
µM

>  <MEASUREMENT>
0.02

$$$$

Turning now to a further record.
The compound identified as O=C(Nc1ccc(C(F)(F)F)c(C(F)(F)F)c1)c1cc(Cl)ccc1O [MMV687807] registered its IC50 at 25

----------
SYSTEM TESTED: P. falciparum translation (P. falciparum lysate)
METHOD: P. falciparum in vitro translation (PfIVT) assay, lysate-based, luciferase reporter
Format: biochemical, Plasmodium falciparum
PROTOCOL CONDITIONS: Table 3; read-out: PfIVT IC50
Catalogue of IC50 values

Some molecules with known IC50 results, for comparison:
>  <MOLECULE>
O=C(Nc1c(O)cccc1-c1nc2c(C(=O)O)cccc2o1)c1cc(-c2ccccc2)on1 [MMV676008]

>  <SYSTEM TESTED>
P. falciparum translation (P. falciparum lysate)

>  <MEASUREMENT>
400 nM

$$$$
>  <MOLECULE>
O=C(Nc1ccc(C(F)(F)F)c(C(F)(F)F)c1)c1cc(Cl)ccc1O [MMV687807]

>  <SYSTEM TESTED>
P. falciparum translation (P. falciparum lysate)

>  <MEASUREMENT>
90 nM

$$$$
>  <MOLECULE>
Cc1ccc2c(c1C)NC(=O)C21NN=C(c2ccccc2)S1 (stereo not drawn) [MMV019189]

>  <SYSTEM TESTED>
P. falciparum translation (P. falciparum lysate)

>  <MEASUREMENT>
30 nM

$$$$
>  <MOLECULE>
O=C(NCCN1CCCC1)c1cc(NCCN2CCOCC2)nc2ccc(Cl)cc12 [MMV634140]

>  <SYSTEM TESTED>
P. falciparum translation (P. falciparum lysate)

>  <MEASUREMENT>
3000 nM

$$$$
>  <MOLECULE>
O=C(NCCN1CCCC1)c1cc(NCCCCN2CCC(F)(F)CC2)nc2ccc(Cl)cc12 [MMV667494]

>  <SYSTEM TESTED>
P. falciparum translation (P. falciparum lysate)

>  <MEASUREMENT>
300 nM

$$$$

The record that follows has no IC50 shown yet.
The molecule listed as Nc1nc(NC2Cc3ccc(F)cc3C2)nc(N2CCCCC2)n1 (stereo not drawn) [MMV1580839] has a reported IC50 of 800 nM

----------
compounds and their reported IC50
SYSTEM TESTED: human translation (HEK 293F lysate)
METHOD: Human in vitro translation (HsIVT) assay, HEK 293F lysate, luciferase reporter
Format: biochemical
PROTOCOL CONDITIONS: Pathogen Box hits; weighted mean ± SD of two technical replicates; read-out: IC50 value (μM) HsIVT
Could you give me the number in µM? Just the number is fine.

>  <MOLECULE>
NC(=O)c1cc(Br)ccc1OCCOc1ccccc1

>  <RECORDED METRIC>
IC50

>  <UNIT NAME>
µM

>  <MEASUREMENT>
13

$$$$

# input for lookup
compound "COc1cc(C2=NCCN2)cc2cc(-c3ccc(C4=NCCN4)cc3)oc12" , IC50 observed: 5.6

Source listed as paper PMC9211397.
